# EXPERIMENTAL_DETAILS: recombinant barcode read abundance after kanamycin selection (control-corrected) (log10(CPM+1)); higher = more efficient recombination; sequences stand for … in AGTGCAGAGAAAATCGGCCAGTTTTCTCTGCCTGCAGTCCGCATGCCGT…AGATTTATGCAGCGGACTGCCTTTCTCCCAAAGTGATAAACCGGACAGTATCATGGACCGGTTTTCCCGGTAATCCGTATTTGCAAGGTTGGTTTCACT; site = the 11-nt target
Given measured recombinant barcode read abundance (log10), output TRUE if it is greater than or equal to 0.5 and FALSE if not.

// query Check the entry GTAAATCCTTGGGTTCTAACCTGTTGCCT (site CTAAATCCTAG) : does recombinant barcode read abundance (log10) equal or exceed 0.5?
// result FALSE

// query // query: GAGCGGACTTGGGTTCTAACCTGTTGCCT (site GAGCAGACTAG)
// result TRUE

// query // query: AACTTTCCTTGGGTTCTAACCTGTTGCAT (site AACTCTCCTAT)
// result FALSE

// query // query: CCTCAGGCTTGGGTTCTAACCTGTTGCCG (site CCTCAGGCTAG)
// result FALSE

// query // query: CTAAGGACTTGGGTTCTAACCTGTTGCTT (site CTAAGGACTAA)
// result FALSE

// query // query: GATGGGTCTTGGGTTCTAACCTGTTGCCT (site GCTGGGTCTAG)
// result FALSE

// query // query: TGGCCGACTTGGGTTCTAACCTGTTGCAC (site TGGCCGACTGT)
// result TRUE

// query // query: GCACGACCTTGGGTTCTAACCTGTTGCCT (site GCACAACCTAG)
// result TRUE

// query // query: GAGGGCCCTTGGGTTCTAACCTGTTGCCT (site CAGGGCCCTAG)
// result TRUE

// query // query: CCTCAGGCTTGGGTTCTAACCTGTTGCCC (site CCTCAGGCTGG)
// result TRUE

// query // query: ACCCAGCCTTGGGTTCTAACCTGTTGCGT (site ACCCAGCCTAC)
// result TRUE

// query // query: CGCCGTACTTGGGTTCTAACCTGTTGCCT (site CGTCGTACTAG)
// result FALSE

// query // query: AGAGGGTCTTGGGTTCTAACCTGTTGCCT (site ACAGGGTCTAG)
// result TRUE

// query // query: TCTGGCCCTTGGGTTCTAACCTGTTGCCT (site TCTGGCCCTAG)
// result FALSE

// query // query: GTACGAGCTTGGGTTCTAACCTGTTGCCG (site GTGTGAGCTCG)
// result FALSE

// query // query: GGCACTACTTGGGTTCTAACCTGTTGCGT (site GGCACTACTAC)
// result FALSE

// query // query: ATTCGAGCTTGGGTTCTAACCTGTTGCAT (site CGGGCGTCTTA)
// result FALSE

// query // query: TCGAGAGCTTGGGTTCTAACCTGTTGCCG (site TCGAGAGCTCG)
// result FALSE

// query // query: ATCCAGCCTTGGGTTCTAACCTGTTGCCT (site ATCCATCCTAG)
// result FALSE

// query // query: GTTCCGGCTTGGGTTCTAACCTGTTGCCT (site GTTCCGGCTAG)
// result TRUE

// query // query: TAAAGTACTTGGGTTCTAACCTGTTGCTT (site TAAAGTACTAA)
// result FALSE

// query // query: GACACCTCTTGGGTTCTAACCTGTTGCCG (site TCTGAAACTAA)
// result FALSE

###

# EXPERIMENTAL_DETAILS: recombinant UMI read abundance after kanamycin selection (control-corrected) (log10(CPM+1)); higher = more efficient recombination; extreme values may be limits of the assay; sequences stand for … in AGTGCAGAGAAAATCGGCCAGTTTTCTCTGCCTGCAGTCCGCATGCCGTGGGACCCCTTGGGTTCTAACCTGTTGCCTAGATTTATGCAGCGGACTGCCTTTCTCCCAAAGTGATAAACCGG…AGGTTGGTTTCACT; site = the 11-nt donor
Given measured recombinant UMI read abundance (log10), output 1 if it is greater than or equal to 0.005 and -1 if not.

// query Check the entry CGATAATCATGGACCGGTTTTCCCGGTAATCCGTATTTGCT (site CGATAATCTAG) : does recombinant UMI read abundance (log10) equal or exceed 0.005?
// result 1

// query // query: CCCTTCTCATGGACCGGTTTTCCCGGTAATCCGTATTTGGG (site CCCTTCTCTTC)
// result 1

// query // query: AGGAAATCATGGACCGGTTTTCCCGGTAATCCGTATTTGCA (site AGGAAGACTTG)
// result -1

// query // query: ACAGTGCCATGGACCGGTTTTCCCGGTAATCCGTATTTGCA (site ACAGTGCCTTG)
// result 1

// query // query: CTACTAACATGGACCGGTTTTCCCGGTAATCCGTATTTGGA (site CTACTGACTTC)
// result -1

// query // query: ATAAGGACATGGACCGGTTTTCCCGGTAATCCGTATTTGAC (site ATAAGGACTGT)
// result 1

// query // query: CGGGGTGCATGGACCGGTTTTCCCGGTAATCCGTATTTGGT (site CGGGGTGCTAC)
// result 1

// query // query: GCTGTCCCATGGACCGGTTTTCCCGGTAATCCGTATTTGGC (site GCTGTCCCTGC)
// result -1

###

# EXPERIMENTAL_DETAILS: recombinant UMI read abundance after kanamycin selection (control-corrected) (log10(CPM+1)); higher = more efficient recombination; extreme values may be limits of the assay; sequences stand for … in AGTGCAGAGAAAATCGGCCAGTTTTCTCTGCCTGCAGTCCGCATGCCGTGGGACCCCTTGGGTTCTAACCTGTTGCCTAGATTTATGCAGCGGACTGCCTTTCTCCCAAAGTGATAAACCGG…AGGTTGGTTTCACT; site = the 11-nt donor
I'd be grateful if you could share measured recombinant UMI read abundance (log10) for these entries.

// query If you can, please state the reported recombinant UMI read abundance (log10) value of GGAATTCCATGGACCGGTTTTCCCGGTAATCCGTATTTGCA (site GGAATTCCTTG) .
// result 0

// query // query: GATTGCACATGGACCGGTTTTCCCGGTAATCCGTATTTGAC (site GATTGAACTGT)
// result 0

// query // query: CGGTAGTCATGGACCGGTTTTCCCGGTAATCCGTATTTGCC (site CGGCAGTCTGG)
// result 1.47

// query // query: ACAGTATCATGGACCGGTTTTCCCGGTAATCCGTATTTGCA (site ACGGTATCTTG)
// result 0.0156

// query // query: CCATCTGCATGGACCGGTTTTCCCGGTAATCCGTATTTGAA (site CCATCTGCTTT)
// result 1.91

// query // query: TAGCTCACATGGACCGGTTTTCCCGGTAATCCGTATTTGAT (site AAGCTCACTAT)
// result 0.00391

// query // query: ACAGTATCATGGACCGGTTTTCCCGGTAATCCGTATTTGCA (site CCAGTATCTTG)
// result 2.71

// query // query: ACATCTACATGGACCGGTTTTCCCGGTAATCCGTATTTGTC (site ACATCTACTTA)
// result 0.0124

// query // query: TAGAGTACATGGACCGGTTTTCCCGGTAATCCGTATTTGCA (site TAGATTACTTG)
// result 0

// query // query: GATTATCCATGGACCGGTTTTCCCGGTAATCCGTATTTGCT (site GATTCTCCTAG)
// result 0

// query // query: GTGCATTCATGGACCGGTTTTCCCGGTAATCCGTATTTGGT (site GTGCATTCTAC)
// result 1.99

// query // query: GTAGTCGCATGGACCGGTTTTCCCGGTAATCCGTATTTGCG (site GTTGTCGCTCG)
// result 0.285

// query // query: AAACGCACATGGACCGGTTTTCCCGGTAATCCGTATTTGGG (site AAACGCACTCC)
// result 0.0145

// query // query: TATTTGGCATGGACCGGTTTTCCCGGTAATCCGTATTTGAG (site TATTTGGCTCT)
// result 0.00868

// query // query: AATTCTGCATGGACCGGTTTTCCCGGTAATCCGTATTTGGA (site AATTATGCTTC)
// result 0.384

// query // query: CCAGTATCATGGACCGGTTTTCCCGGTAATCCGTATTTGAA (site CCAGTATCTTT)
// result 1.05

// query // query: ATGGTCGCATGGACCGGTTTTCCCGGTAATCCGTATTTGAC (site ATGGTCGCTGT)
// result 3.13

The origin of these recorded values is the supplement of paper PMC11208160.
